- assay_text: Human HepG2 cell viability assay in 384 well format
- Type: toxicity, cell-based
- Parameters: dose 125 nL, time 70.5 hour; concentration not given beside the values
- assay_conditions: HepG2 cells, read-out: Inhibition
endpoint: cytotoxicity at 70.5 h (%)
Respond numerically; units are % and should not be typed.

Solved cases (8 shown):
{"columns": ["compound", "cytotoxicity at 70.5 h / %"],
 "data": [
  ["CCOc1cccc(C(C)NC(=O)N2CCC3(CC2)OCCO3)c1 (stereo unspecified)", -13.2],
  ["c1cnc(NCC2Cn3nnc(-c4ccoc4)c3CO2)nc1 (stereo unspecified)", -13.1],
  ["O=C(CCn1ccc2cc(Br)ccc21)/N=c1\\[nH]nc(C2CCCO2)s1 (stereo unspecified)", -12],
  ["CNC(=O)CC1CCN(Cc2nc(-c3cccc(Cl)c3)oc2C)CC1", -7.93],
  ["NS(=O)(=O)c1ccc(CNC(=O)c2ccc(Cl)cc2F)cc1", 5.61],
  ["CC(C)n1cc(CN2CCCN(C(=O)C3(C)CCOCC3)CC2)cn1", -11.5],
  ["Cc1ccc2[nH]c(=O)cc(C(=O)NCCCn3nccc3C3CC3)c2c1", -16],
  ["Cc1cccc(C2(CNC(=O)C(C)NC(N)=O)CCCC2)c1 (stereo unspecified)", 4.08]
]}

The value of cytotoxicity at 70.5 h measured for the compound CCc1nsc(NC2CCCn3nc(COC)nc32)n1 (stereo unspecified) turned out to be -3.94

Documented cytotoxicity at 70.5 h of "O[C@H]1[C@H](n2cc(-c3cccnc3)nn2)c2ccccc2C12CCNCC2" : 0.63

Reported cytotoxicity at 70.5 h of "Clc1cccc(Cl)c1CNCCOc1ccccn1" : 11.6

---

- assay_text: Human HepG2 cell viability assay in 384 well format
- Type: toxicity, cell-based
- Design: dose 125 nL, time 70.5 hour; concentration not given beside the values
- assay_conditions: HepG2 cells, read-out: Inhibition
endpoint: cytotoxicity at 70.5 h (%)
Reply with just the number (in %).

Consider the reported cytotoxicity at 70.5 h for these compounds:
{"columns": ["compound", "units_of_measure", "cytotoxicity at 70.5 h"],
 "data": [
  ["CCCc1nc(C(=O)NCCCn2nnc3ccccc32)cs1", "%", -8.53],
  ["CN(Cc1ccco1)C1CCC12CCN(C(=O)c1ccncc1)CC2 (stereo unspecified)", "%", -5.53],
  ["Cc1cc(S(=O)(=O)N2CCCc3cc(Cl)ccc32)sc1C(=O)O", "%", 2.62],
  ["O=C(c1ccc(NC2CC2)nc1)N1CCC(Nc2cccnn2)CC1", "%", -8.71],
  ["O=C1CC(c2ccc(C(=O)O)cc2)c2c(sc3c2CCCC3)N1 (stereo unspecified)", "%", -9.3],
  ["CS(=O)(=O)N1CC2(CCN(C(=O)c3ccncc3)CC2)c2ccccc21", "%", -6.91],
  ["Cc1cncc(C2CCCN(C(=O)c3c[nH]c(=O)[nH]c3=O)C2)n1 (stereo unspecified)", "%", -22.8],
  ["O=C(NCc1ccnc(-n2cccn2)c1)C1CC(=O)N(CC2CC2)C1 (stereo unspecified)", "%", -8.83]
]}

compound "Cc1cc(CN(C)C(=O)NCc2ccnc(N(C)C)c2)no1" , cytotoxicity at 70.5 h observed: -1.17

Quick note, cytotoxicity at 70.5 h for "O=C(CCOc1ccccc1)NS(=O)(=O)Cc1ccccc1" landed at -5.31

So, "O=C1OCCN1CCS(=O)(=O)c1cccc(Cl)c1" ? Its cytotoxicity at 70.5 h was -5.19

Attribution: ChEMBL document CHEMBL3507680
